Below are pIC50 values measured for HSP90α (Homo sapiens).
Remember, pIC50 is on a log scale: it is -log10 of the molar concentration.

Here's what some known entries look like.
- Smiles notation: "COc1c(C)cnc(CN2CC(=O)Nc3c(SC)nc(N)nc32)c1C"
  pIC50: 5.86
- Smiles notation: "COc1c(C)cnc(CN2c3nc(N)ncc3N(C)C[C@@H]2C)c1C"
  pIC50: 3.82
- Smiles notation: "CCCN1C(=O)[C@@H](C)N(Cc2ncc(C)c(OC)c2C)c2nc(N)ncc21"
  pIC50: 6.26
- Smiles notation: "COc1c(C)cnc(CN2c3nc(N)ncc3NC(=O)[C@@H]2C)c1C"
  pIC50: 5.00
- Smiles notation: "COc1c(C)cnc(CN2c3nc(N)ncc3NC(=O)[C@H]2CC(=O)NCCN(C)C)c1C"
  pIC50: 5.79
- Smiles notation: "COc1c(C)cnc(CN2CC(=O)N(Cc3ccccc3)c3c(Cl)nc(N)nc32)c1C"
  pIC50: 6.54
- Smiles notation: "COc1c(C)cnc(CN2CC(=O)N(CCc3cccnc3)c3c(Cl)nc(N)nc32)c1C"
  pIC50: 6.78
- Smiles notation: "COc1c(C)cnc(CN2c3nc(N)ncc3N(CCC(C)C)C(=O)[C@H]2C)c1C"
  pIC50: 6.43

Exam item: Need pIC50 of COc1c(C)cnc(CN2CC(=O)N(CCc3ccccc3)c3c(Cl)nc(N)nc32)c1C , thanks.
Marked response: 7.09

Exam item: What value of measured pIC50 is listed for COc1c(C)cnc(CN2CC(=O)Nc3c(C)nc(N)nc32)c1C ?
Marked response: 6.09

Exam item: Which pIC50 is reported for this molecule? COc1c(C)cnc(CN2CCN(C)c3cnc(N)nc32)c1C
Marked response: 4.89

Values from patent US7799781B2
